Experiment: Acute oral toxicity (lethal dose)
Format: in vivo
Conditions: mouse, in vivo, po, Souris mâles, oral; read-out: DL50 (the source's name) (converted)
Description: La toxioité aiguë est exprimée par la dose létale 50, c'est-à-dire la dose létale entraînant la mort de 50 % des animaux. Cette étude a été effectuée sur des souris mâles et femelles auxquelles on a administré les produits à tester par voie orale à des concentrations différentes et on a mesuré la létalité sur dix souris mâles et sur 10 souris femelles.
recorded.endpoint: LD50 (mg/kg)
The answer is to be given in mg/kg; state only the numeric part.

Consider the compound CCC(CO)NS(=O)(=O)c1cc(Cl)c([N+](=O)[O-])cc1OC (stereo not shown) and give its recorded LD50.
18500

====

Recorded Lipides totaux Score (par rapport au clofibrate compté pour 1), one value per entry.
test system: hyperlipidémie provoquée par l'administration de TRITON®; experiment: Triton test: hyperlipidemia induced by i.v. TRITON W.R. in fasted rats; assay type: in vivo, rats WISTAR mâles; settings: 250 mg/kg oral; ratio to clofibrate of the same series

Report measured Lipides totaux Score (par rapport au clofibrate compté pour 1) on hyperlipidémie provoquée par l'administration de TRITON®; entry: COc1cc([N+](=O)[O-])c(Cl)cc1S(=O)(=O)NCC(C)O (stereo not drawn) [compound 322]
3,15

Provide Lipides totaux Score (par rapport au clofibrate compté pour 1), tested on hyperlipidémie provoquée par l'administration de TRITON®, for CCC(CO)NS(=O)(=O)c1ccc(N)cc1OC (stereo not drawn) [compound 313] .
0,77

Provide Lipides totaux Score (par rapport au clofibrate compté pour 1), recorded with hyperlipidémie provoquée par l'administration de TRITON®, of COc1cc(N)ccc1S(=O)(=O)N(C)CCO [compound 326]
0,71

====

test system: hyperlipidémie provoquée par l'administration de TRITON®; test: Triton test: hyperlipidemia induced by i.v. TRITON W.R. in fasted rats; format: in vivo, rats WISTAR mâles; settings: 250 mg/kg oral; ratio to clofibrate of the same series
recorded.endpoint: Cholestérol total Score (par rapport au clofibrate compté pour 1)

Study these solved cases before continuing.
>  <compound>
COc1cc(N)ccc1S(=O)(=O)NCC(C)O (stereo not drawn) [compound 320]

>  <meas.value>
1,61

$$$$
>  <compound>
CCC(CO)NS(=O)(=O)c1cc(Cl)c([N+](=O)[O-])cc1OC (stereo not drawn) [compound 316]

>  <meas.value>
1,17

$$$$

Consider the record given below.
Identify measured Cholestérol total Score (par rapport au clofibrate compté pour 1) corresponding to CCC(CO)NS(=O)(=O)c1cc(Br)ccc1OC (stereo not drawn) [Composé n° 645]
1,54

====

Item-by-item account of Triglycérides Score (par rapport au clofibrate compté pour 1)
system: hyperlipidémie provoquée par l'administration de TRITON®; assay: Triton test: hyperlipidemia induced by i.v. TRITON W.R. in fasted rats; assay type: in vivo, rats WISTAR mâles; settings: 250 mg/kg oral; ratio to clofibrate of the same series

Reference set (3 entries):
>  <molecule>
COc1ccc([N+](=O)[O-])cc1S(=O)(=O)NCC(C)O (stereo not shown) [compound 321]

>  <meas.value>
1,05

$$$$
>  <molecule>
CCC(CO)NS(=O)(=O)c1cc(N)ccc1OC (stereo not shown) [Composé n° 315]

>  <meas.value>
0,53

$$$$
>  <molecule>
COc1cc(N)c(Cl)cc1S(=O)(=O)NCCO [compound 282]

>  <meas.value>
0,42

$$$$

Write down Triglycérides Score (par rapport au clofibrate compté pour 1) measured for item CCOC(=O)C(C)(C)Oc1ccc(Cl)cc1 [Clofibrate]
1,00

// fetch Triglycérides Score (par rapport au clofibrate compté pour 1) given entry CCC(CO)NS(=O)(=O)c1cc([N+](=O)[O-])ccc1OC (stereo not shown) [compound 314]
0,04

Read off the recorded Triglycérides Score (par rapport au clofibrate compté pour 1) for COc1cc(N)ccc1S(=O)(=O)NCC(C)O (stereo not shown) [compound 320]
0,91
